Source: patent US20240148821A1

- testTarget: protein-protein interaction between Kras and SOS1 (biotin-tagged human Kras loaded with GDP, His-tagged human SOS1) (Homo sapiens (Human), UniProt P01116, G12D)
- assayProcedure: Protein-protein interaction inhibition between Kras and SOS1 (KrasG12D-SOS PPI) using AlphaScreen;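 further: kras produced in E. coli, Ni-coupled donor beads and streptavidin acceptor beads, excitation 680 nm with emission detected at 520–620 nm via singlet oxygen transfer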
- Format: biochemical
- experimentalContext: AlphaScreen; biotin-tagged human Kras loaded with GDP, His-tagged human SOS1; read-out: KRAS G12D-SOS PPI IC50
pIC50: −log10 of the molar value. Numbered stars: 1 amine (or outer) side, 2 acyl side, 3 side chain; on linkers, the order of the positions; unused ones are H or OH. Bridge positions count the residues as written; N and C are the ends. Square brackets hold non-standard residues; d marks the D form. Peptide text beside a SMILES is read from it. * marks the point of attachment. hPhe(3-Cl-4-CF3) = N[C@@H](CCc1ccc(C(F)(F)F)c(Cl)c1)C(=O)O; hPhe(3-F,4-CF3) = N[C@@H](CCc1ccc(C(F)(F)F)c(F)c1)C(=O)O; NMePhe(4-CF3) = CN[C@@H](Cc1ccc(C(F)(F)F)cc1)C(=O)O; NMedβ3hAla = C[C@H](CC(=O)[*:2])N(C)[*:1]; NMeGly(cPent) = CN[C@H](C(=O)O)C1CCCC1; NMeCha = CN[C@@H](CC1CCCCC1)C(=O)O; cisHyp = O=C(O)[C@@H]1C[C@H](O)CN1; Hyp = O=C(O)[C@@H]1C[C@@H](O)CN1; NMeChg = CN[C@H](C(=O)O)C1CCCCC1; NMeD = CN[C@@H](CC(=O)O)C(=O)O; NMeL = CN[C@@H](CC(C)C)C(=O)O; d(β3hA) = C[C@@H](N)CC(=O)O; NMeA = CN[C@@H](C)C(=O)O; NMeAib = CNC(C)(C)C(=O)O; Piperidide = C1CCN(*)CC1; dNMeA = CN[C@H](C)C(=O)O; Ac5c = NC1(C(=O)O)CCCC1; Ac4c = NC1(C(=O)O)CCC1; Bn = c1ccc(C*)cc1; Sar = CNCC(=O)O
Rule: pIC50 under 8 gives F, otherwise T.

Given the entry CC[C@H](C)[C@@H]1NC(=O)[C@H](CC(C)C)N(C)C(=O)C[C@@H](C(=O)N2CCCCC2)N(C)C(=O)[C@H](C2CCCCC2)N(C)C(=O)C2(CCCC2)NC(=O)[C@@H]2C[C@H](O)CN2C(=O)[C@H](CCc2ccc(C(F)(F)F)c(Cl)c2)NC(=O)CN(C)C(=O)[C@H](CC2CCCCC2)N(C)C(=O)CN(C)C(=O)CN(C)C1=O [Compound 1374] ([NMeL]I[Sar][Sar][NMeCha][Sar][hPhe(3-Cl-4-CF3)][cisHyp][Ac5c][NMeChg][NMeD]-Piperidide; lactam N-11) , answer whether its pIC50 meets or surpasses 8.
T

Threshold query (pIC50 >= 8) on CC[C@H](C)[C@@H]1NC(=O)[C@H](CC(C)C)N(C)C(=O)C[C@@H](C)NC(=O)[C@H](CC(C)C)N(C)C(=O)C2(CCCC2)NC(=O)[C@@H]2C[C@@H](OCc3ccccc3)CN2C(=O)[C@H](CCc2ccc(C(F)(F)F)c(F)c2)NC(=O)CN(C)C(=O)[C@H](CC2CCCCC2)N(C)C(=O)CN(C)C(=O)CN(C)C1=O [Compound 2116] (cyclo([Ac5c][NMeL][d(β3hA)][NMeL]I[Sar][Sar][NMeCha][Sar][hPhe(3-F,4-CF3)][Hyp](Bn)))
F

Is reported pIC50 greater than or equal to 8 here: CC[C@H](C)[C@@H]1NC(=O)[C@H](C)N(C)C(=O)C[C@@H](C)N(C)C(=O)[C@H](CC(C)C)NC(=O)C(C)(C)N(C)C(=O)[C@H](CC(C)C)NC(=O)[C@H](CCc2ccc(C(F)(F)F)c(Cl)c2)NC(=O)[C@@H](C)N(C)C(=O)[C@H](Cc2ccc(C(F)(F)F)cc2)N(C)C(=O)CN(C)C(=O)CN(C)C1=O [Compound 1385] (cyclo(I[Sar][Sar][NMePhe(4-CF3)][dNMeA][hPhe(3-Cl-4-CF3)]L[NMeAib]L[NMedβ3hAla][NMeA]))
F

Item CC[C@H](C)[C@@H]1NC(=O)[C@H](C)N(C)C(=O)C[C@@H](C)NC(=O)[C@H](C2CCCC2)N(C)C(=O)C2(CCC2)NC(=O)[C@@H]2CCCN2C(=O)[C@H](CCc2ccc(C(F)(F)F)c(Cl)c2)NC(=O)CN(C)C(=O)[C@H](Cc2ccc(C(F)(F)F)cc2)N(C)C(=O)CN(C)C(=O)CN(C)C1=O [Compound 1486] (cyclo([Ac4c][NMeGly(cPent)][d(β3hA)][NMeA]I[Sar][Sar][NMePhe(4-CF3)][Sar][hPhe(3-Cl-4-CF3)]P)) with pIC50 of 8 or above?
T
